Sourced from the supplement of paper PMC9170038

Test system: MS2 coat protein
test_protocol: apparent KD of MS2 coat protein; designed switch direction (-1 OFF switch, 1 ON switch): -1; higher = weaker reporter binding
experimental_setup: input ligand: microRNA oligo, concentration not stated
quantity_measured: apparent KD of MS2 coat protein (nM)

{"chain": "UUUUUAUAUGAAGGAUAUACUUAACAUGAGGAUCACCCAUGUGGUGUUGUGAGUGAGUGAGUUUAGUAGAAGGUCAAGUAUUUC [JMF's solution 43] (Eterna round: R96, puzzle: Exclusion NG 2)", "quantity_measured": "apparent KD of MS2 coat protein", "reported": 329}
{"chain": "CACCGUAACAGAGGAUAUGAUACAUGAGGAUCACCCAUGUAAUAAAUGAGAAUUUCGAAUGUACCUCAGAAGGCUGGAACCGGC [Ostricism 80 - Jieux - Exclusion NG 2] (Eterna round: R96, puzzle: Exclusion NG 2)", "quantity_measured": "apparent KD of MS2 coat protein", "reported": 33.9}
{"chain": "CUGAAAGACGAAGGAUAUCCAGGCACCGGAGUAGGAGAAGGUCGUCCGGGUGUCCUAGAACUUGAGGAUCACCCAAGUAGAAGA [Mutated MS2 EX1.5] (Eterna round: R96, puzzle: Exclusion NG 1)", "quantity_measured": "apparent KD of MS2 coat protein", "reported": 36.9}
{"chain": "AAGAACGUGCAAGGAUAUCUCCACCAAACCGGCAGAGAAGGUGCACAUGAGGAUCACCCAUGUGACCUAAGGCUCUUAUGAGCC [Teismace] (Eterna round: R96, puzzle: Exclusion NG 1)", "quantity_measured": "apparent KD of MS2 coat protein", "reported": 14.6}
{"chain": "GCAAAUCAUGUAGGAUAUGCGUGGCGAAGCUAUGCAGAAGGACAUGAGGAUCACCCAUGUGCUUCCGUCUGCGUACAGACGGUA [Mat - Exclusion NG 1 - Mod of JL - D18] (Eterna round: R96, puzzle: Exclusion NG 1)", "quantity_measured": "apparent KD of MS2 coat protein", "reported": 73.4}

====

Tested on: MS2 coat protein
test_protocol: apparent KD of MS2 coat protein, switch ON state; designed switch direction (-1 OFF switch, 1 ON switch): 1; higher = weaker reporter binding
experimental_setup: FMN input: 0 or 200 uM; Eterna round: R93 (includes R88 designs)

{"chain": "GGGAGACAUGAGGAUCACCCAUGUGAGAAGAGGCGAGGAUAUCGAAAGAAAGAAGAGAAACGAGAAGGCGCGAGGA [salish99-SS1-051]", "unit_info": "µM", "apparent KD of MS2 coat protein": 0.0377}
{"chain": "CAGAGACAUGAGGAUCACCCAUGUAGGAUUAUGGGAGGAUAUACAAAGACGAGAGUCAGAGUAGAAGGCCUAGGAG [salish99-ss1-143]", "unit_info": "µM", "apparent KD of MS2 coat protein": 0.024}
{"chain": "GAUAGACAUGAGGAUCACCCAUGUAGAAUUAUGGGAGGAUAUACAAAGACGAGAGUCAGAGUAGAAGGCCUAGGAU [salish99-ss1-157]", "unit_info": "µM", "apparent KD of MS2 coat protein": 0.0236}
{"chain": "AACAAUCUAUCUGAGGAUAUCAUGUCAAAGACAUGAGGAUCACCCAUGUUGCAGGAAACUGCUCAUGAGAAGGCAGAUAGAUUGA [SS2: 1129]", "unit_info": "µM", "apparent KD of MS2 coat protein": 0.041}
{"chain": "GGCAGUCCGACACAGGAUAUGGGUAACGAAACAUGAGGAUCACCCAUGUGGAAACAUCGGGUUGCCUAGAAGGGUGGAAAGAUUG [Xeti]", "unit_info": "µM", "apparent KD of MS2 coat protein": 0.0264}
{"chain": "AGAAAUAAAAGACAGGAUAUCCACUCAAAAACAUGAGGAUCACCCAUGUAAAAGAAAAUAAAAUGGGAGAAGGGUCAAAAUAAGA [Jieux modified + C segment V7]", "unit_info": "µM", "apparent KD of MS2 coat protein": 0.0155}
{"chain": "ACAAACAAAAAAGAGGAUAUCCUAAACAAAACAUGAGGAUCACCCAUGUAAAAAAAAAUAAAAUGGGAGAAGGCUUACAACAAAC [SS2 M 23]", "unit_info": "µM", "apparent KD of MS2 coat protein": 0.068}

====

// reported apparent KD of MS2 coat protein per item
System: MS2 coat protein
test_protocol: apparent KD of MS2 coat protein; designed switch direction (-1 OFF switch, 1 ON switch): -1; higher = weaker reporter binding
experimental_setup: Eterna round: R95; input ligand: microRNA oligo, concentration not stated

{"chain": "CUCUUGUCAGGAUAUCAACGCCAUCCACAUGGACGGCGAAAUGAGAAGGGACAUGAGGAUCACCCAUGUUAAAA [Xeveleqube] (puzzle: Exclusion 4)", "apparent KD of MS2 coat protein (nM)": 117}
{"chain": "AGUAGUUGUUUCCGUUCUUACAUGAGGAUCACCCAUGUUUCUUGUCGUGCUCGCGUUGCUCGUCAGACUACCAGUUG [salish99_TOv1_r3_061] (puzzle: Sensor v3, turn-off variant 1)", "apparent KD of MS2 coat protein (nM)": 73.7}
{"chain": "UCGCUGCGAGGAUAUACGUUUGCGCGUUUUCGUUUGCGCGUACAUGAGGAUCACCCAUGUAGAAGGCGCGCGGC [Apr-15 SS2-11] (puzzle: Exclusion 2)", "apparent KD of MS2 coat protein (nM)": 12.2}
{"chain": "AACUAGGCAGGAUAUACAUGAGGAUCACCCAUGUGCCGAUACAAAGGGACUAACAGAGGUAGAAGGGCCUAGAA [ChP 13.04.2015 #1] (puzzle: Exclusion 3)", "apparent KD of MS2 coat protein (nM)": 36.2}
{"chain": "ACGUAUCAUGUCAGGAUAUAGCUAGCUACGGCUAGCUAGAAGGGACAUGAGGAUCACCCAUGUCAAAGAUACGU (puzzle: Brourd's mod of Exclusion 4)", "apparent KD of MS2 coat protein (nM)": 13.2}
{"chain": "UAUACUAGAUAGGAUAUACUAUAUAUAUUAUUCGUAGAAGGAUCUACAUGAGGAUCACCCAUGUUAACAGCAGU [JR_E6_Sub006] (puzzle: Exclusion 6)", "apparent KD of MS2 coat protein (nM)": 37.2}
{"chain": "CAAAUUGCAGGAUAUACUGGGCCAGAGCCAUCGUGUAUUCCACAUGAGGAUCACCCAUGUAGAAGGGCACGUAC [Aqueran] (puzzle: Exclusion 2)", "apparent KD of MS2 coat protein (nM)": 23.8}
{"chain": "CCUCCACAUGAGGAUCACCCAUGUCAGGAUAUCGUGUGUUUUUUUUCGGUCGCGCGUGCGAGAAGGGACGUCUU (puzzle: Exclusion 1)", "apparent KD of MS2 coat protein (nM)": 23.7}

====

Test system: K4 kissing-loop RNA reporter;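 note: bound reporter read as fluorescence of individual clusters on recovered sequencing chips by microscopy, with normalized cluster intensities fitted with a binding model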
test_protocol: apparent KD of K4 kissing-loop reporter; higher = weaker reporter binding
experimental_setup: Eterna round: R107; input ligand: tryptophan 2.4 mM
// reported apparent KD of K4 kissing-loop reporter per item
quantity_measured: apparent KD of K4 kissing-loop reporter (nM)

{"chain": "GGGAGUAGUGCGGCCGCCACUGAGAAAGAAGAAGAAUAUAGUGAUGUUAUAUAGGAAUUAAAGAACAGGACCGGGCAUUAGAUUU [SSTRyptB.O]", "quantity_measured": "apparent KD of K4 kissing-loop reporter", "unit_info": "nM", "reported": 143}
{"chain": "AGGGUUAAUUAGUCUUUUUUCACAUUAAGUCAGGAUAUCGUAUUUUCGAGAAGGGACACAUGCUAGUGAUGUUAGCUAUUUCCCA [#02 K4 FMN A Exclusion]", "quantity_measured": "apparent KD of K4 kissing-loop reporter", "unit_info": "nM", "reported": 86.2}
{"chain": "GAUUCAGUGAUGUUGGAAGGCGAGCGGGAUACCAGCCAAGACUCAGGCCCUUGGCAGCCCACAUAUCCCAGGUAGAUAGUAGCUC [Same State - Theophylline A (Freestyle 12)]", "quantity_measured": "apparent KD of K4 kissing-loop reporter", "unit_info": "nM", "reported": 132}
{"chain": "GGCACUUUUGGUAGGAACCAUCUACCUCUAUAGGAUAUGCCGAAAGGCAGAAGGAUAGACCUACAGAGUGAUGUUCUGCGUGCCU", "quantity_measured": "apparent KD of K4 kissing-loop reporter", "unit_info": "nM", "reported": 211}

====

Test system: MS2 coat protein
test_protocol: apparent KD of MS2 coat protein; designed switch direction (-1 OFF switch, 1 ON switch): -1; higher = weaker reporter binding
experimental_setup: Eterna round: R95; input ligand: microRNA oligo, concentration not stated
Assign rule met to entries whose apparent KD of MS2 coat protein meets or exceeds 20 nM; assign rule not met to the rest.

{"chain": "CAGUACUGAGGAUAUACAUGAGGAUCACCCAUGUGCCUCAGGUAGGAUACUACCAUUAGUAGAAGGCAGUACUG [Fiskers Ex 3 828 mod 18] (puzzle: Exclusion 3)", "assigned_label": "rule met"}
{"chain": "CCCUCACAUGAGGAUCACCCAUGUCAGGAUAUCUCACAUCGGCCUUAGGCCGAUGUCUAGAGAAGGGACGUAUC [Ceonte] (puzzle: Exclusion 1)", "assigned_label": "rule met"}
{"chain": "UUUUAACAUGAGGAUCACCCAUGUGAGGAUAUCGAUUUUUAUAUUAAUAUUAAUAAAACGAGAAGGCACAUUUU [JMF 11] (puzzle: Exclusion 1)", "assigned_label": "rule met"}
{"chain": "UUUUAACAUGAGGAUCACCCAUGUGAGGAUAUCGAAUUUUAUAUUAAUAUUAAUAAAACGAGAAGGCACAUUUU [JMF 8] (puzzle: Exclusion 1)", "assigned_label": "rule met"}
{"chain": "AAUGUCUGAGGAUAUCGUUUUUUGUACAUGAGGAUCACCCAUGUCCAAUUUUGUAUAUUACGAGAAGGCAGUGGAA [JR_E5_Sub089] (puzzle: Exclusion 5)", "assigned_label": "rule not met"}
{"chain": "UUAUUAAGUGUGAGGAUAUGCUGGUCCUUGGAUCAGCAGAAGGCACAUGAGGAUCACCCAUGUACUUUAUAAAU [JL bmx4 3.05] (puzzle: Brourd's mod of Exclusion 4)", "assigned_label": "rule not met"}
{"chain": "AUCAUGUAAGGAUAUCUUACAUGUGACUUCGGUCACUGUUCAGAGAAGGUACAUGAGGAUCACCCAUGUAGAAC [Ex4-3: 45] (puzzle: Exclusion 4)", "assigned_label": "rule not met"}
{"chain": "AGUACUAACACGAAAGUGUUAGUACAAUAAGCUUGUGAAACAUGAGGAUCACCCAUGUCCUCCUAAGCUCGUCUUAU [salish99_TOv2_r3_049] (puzzle: Sensor v3, turn-off variant 2)", "assigned_label": "rule met"}
{"chain": "GGUACUAACACGAGAGUGUUAGUACUAUAAGCUUGUGUUACAUGAGGAUCACCCAUGUCCUCAUAGGCUCGUCUUAG [Mat - Sensor v3 - Turn-off var 2 - D84] (puzzle: Sensor v3, turn-off variant 2)", "assigned_label": "rule met"}
{"chain": "CUGAGGUAGCGGUCCUAUGACAUGAGGAUCACCCAUGUACCUUGCUUUGAGCUUUUUGCUCGUCUUAUGAUUCUCGG [JL Atriat mod 6] (puzzle: Sensor v3, turn-off variant 1)", "assigned_label": "rule met"}
{"chain": "GGCCCUAAGGUCAGAUCCACAAGCUUUUUGCUCGUUUUAACAUGAGGAUCACCCAUGUCUAGUGGAUCUGAUCCUCA [Sensor v3, turn-off variant 2 (MOD of Indiso v.3)] (puzzle: Sensor v3, turn-off variant 2)", "assigned_label": "rule not met"}
